Sourced from PubChem BioAssay (Tox21)

- Study target: Estrogen receptor (Homo sapiens)
- Test details: qHTS assay to identify small molecule antagonists of the estrogen receptor alpha (ER-alpha) signaling pathway using the BG1 cell line in the presence of 0.1 nM 17-beta-estradiol (AID 1259244); note: nearly all actives have a fitted effect of over 50% in size; note: potency is the fitted concentration of half-maximal effect
- Condition description: VM7Luc4E2 (BG1) ERE-luciferase, antagonist mode, 0.1 nM E2, 22 h; series mostly up to 92.4 µM
Inconclusive results are not listed. Calls of active or inactive are those of the source. Calls come from the whole dose curve; as a rule, active = well fitted inhibition curve with a large enough effect in the repeat runs; inconclusive = weak or mixed curves; inactive = no such curve, though single readings can be large or run the other way.

| Compound | Potency |
| --- | --- |
| COC(=O)N(C(=O)N1CO[C@@]2(C(=O)OC)Cc3cc(Cl)ccc3C2=N1)c1ccc(OC(F)(F)F)cc1 | 46.9 µM (active) |
| C[C@]12CC[C@H]3[C@@H](CCC4=CC(=O)CC[C@@]43C)[C@@H]1CC[C@@H]2O | inactive |
| CN(CCCC(O)c1cccnc1)N=O (centres undefined) | inactive |
| O=[N+]([O-])c1c2ccccc2cc2ccccc12 | inactive |

---

- Study target: Peroxisome proliferator-activated receptor delta (Homo sapiens) (UniProt Q03181)
- Sequence (Q03181 whole entry, looked up): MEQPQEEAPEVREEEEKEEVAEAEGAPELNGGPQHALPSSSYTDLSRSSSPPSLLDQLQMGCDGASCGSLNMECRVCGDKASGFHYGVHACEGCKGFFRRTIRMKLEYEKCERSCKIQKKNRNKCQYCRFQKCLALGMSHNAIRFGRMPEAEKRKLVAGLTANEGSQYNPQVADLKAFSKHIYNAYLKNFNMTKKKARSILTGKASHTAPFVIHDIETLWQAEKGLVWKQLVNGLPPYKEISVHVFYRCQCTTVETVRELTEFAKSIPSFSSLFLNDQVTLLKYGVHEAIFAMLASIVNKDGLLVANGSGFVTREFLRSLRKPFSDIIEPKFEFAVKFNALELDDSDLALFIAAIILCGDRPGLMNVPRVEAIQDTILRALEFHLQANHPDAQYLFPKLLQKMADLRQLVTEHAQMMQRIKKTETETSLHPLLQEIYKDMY
- Test details: qHTS assay to identify small molecule antagonists of the peroxisome proliferator-activated receptor delta (PPARd) signaling pathway (AID 743215);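 note: cells stimulated with agonist L165041 at 300 nM final during compound exposure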
- Condition description: HEK293H PPARd-UAS-bla, beta-lactamase FRET ratio, antagonist, 17 h; series mostly up to 62 µM
- Text: U.S. Tox21 Program National Center for Advancing Translational Sciences [NCATS] NIH Chemical Genomics Center [NCGC] U.S. Environmental Protection Agency [EPA] National Institutes of Environmental Health Sciences [NIEHS] National Toxicology Program [NTP] U.S. Food and Drug Administration [FDA] […]
Inconclusive results are not listed. Calls of active or inactive are those of the source. The call rests on the fitted dose curve; in most records, active means well fitted inhibition curve with a large enough effect in the signal ratio in the repeat runs (not every such curve was filed as active); inconclusive means weak or mixed curves, or effect the other way; inactive means no such curve, though single readings can be large or run the other way; the % refers to the signal ratio.
Your answer must be one of the following: 1 for active, -1 for inactive

Completed entries (count: 4):
| Molecule | Study target | Class label |
| --- | --- | --- |
| Clc1ccc(-c2ccc(Cl)c(Cl)c2Cl)c(Cl)c1Cl | Peroxisome proliferator-activated receptor delta (Homo sapiens) (UniProt Q03181) | -1 |
| Cc1ccc(OP(=O)(Oc2ccccc2)Oc2ccccc2)cc1 | Peroxisome proliferator-activated receptor delta (Homo sapiens) (UniProt Q03181) | -1 |
| C[C@]12Cc3nonc3C[C@@H]1CC[C@@H]1[C@@H]2CC[C@@]2(C)[C@H]1CC[C@]2(C)O | Peroxisome proliferator-activated receptor delta (Homo sapiens) (UniProt Q03181) | -1 |
| Oc1ccc(C2(c3ccc(O)cc3)c3ccccc3-c3ccccc32)cc1 | Peroxisome proliferator-activated receptor delta (Homo sapiens) (UniProt Q03181) | 1 |

Exercise: What was the test verdict on `CC(=O)c1cc(C(C)(C)C)cc2c1CCC2(C)C` ?
Solution: -1

Exercise: What was the test verdict on `Oc1c(Cl)c(Cl)cc(Cl)c1Cl` ?
Solution: -1

Exercise: What was the test verdict on `Cc1cc(N=Nc2ccccc2C)ccc1N` ?
Solution: -1

Exercise: What was the test verdict on `N#C/C=C/C#N` ?
Solution: -1

Exercise: What was the test verdict on `ClC(Cl)=C(c1ccc(Cl)cc1)c1ccc(Cl)cc1` ?
Solution: -1

Exercise: What was the test verdict on `CC(=O)/C=C/c1ccc2c(c1)OCO2` ?
Solution: 1

Exercise: What was the test verdict on CC(C)CC(C)N (centres undefined) ?
Solution: -1

Exercise: What was the test verdict on `Cc1cc(C)c(C2=C(OC(=O)CC(C)(C)C)C3(CCCC3)OC2=O)c(C)c1` ?
Solution: -1

Exercise: What was the test verdict on `Nc1ccccc1C(=O)OC/C=C/c1ccccc1` ?
Solution: -1
